Cited source for all entries: patent US6927230B2

- system tested: COX-I (Homo sapiens)
- Construct: Fresh blood was collected by syringe without anticoagulants from volunteers with consent; from tissue; host or cells: fresh human whole blood from volunteers, no anticoagulant, allowed to clot
- Sequence (P23219 24-599): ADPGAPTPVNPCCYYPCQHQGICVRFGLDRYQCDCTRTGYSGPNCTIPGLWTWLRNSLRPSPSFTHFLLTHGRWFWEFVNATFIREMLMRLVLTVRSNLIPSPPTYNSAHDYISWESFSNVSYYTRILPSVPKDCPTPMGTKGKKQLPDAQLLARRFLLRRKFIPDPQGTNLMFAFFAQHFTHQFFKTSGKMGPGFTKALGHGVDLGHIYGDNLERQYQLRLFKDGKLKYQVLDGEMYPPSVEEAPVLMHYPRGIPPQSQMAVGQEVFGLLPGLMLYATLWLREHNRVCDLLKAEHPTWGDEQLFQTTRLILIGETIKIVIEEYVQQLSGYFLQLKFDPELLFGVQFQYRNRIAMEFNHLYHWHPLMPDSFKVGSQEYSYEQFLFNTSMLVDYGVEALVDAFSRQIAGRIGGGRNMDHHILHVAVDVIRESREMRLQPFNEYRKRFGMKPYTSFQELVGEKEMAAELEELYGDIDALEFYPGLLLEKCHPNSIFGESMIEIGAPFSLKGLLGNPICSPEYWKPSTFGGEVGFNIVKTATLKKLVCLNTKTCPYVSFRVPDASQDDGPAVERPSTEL
- test: Whole blood assay for COX-I (TXB2 production)
- Assay type: cell-based
- experimental parameters: human whole blood, 1 hr at 37 C, TXB2 production; read-out: COX-I IC50
- Experimental: Fresh blood was collected by syringe without anticoagulants from volunteers with consent. The subjects had no apparent inflammatory conditions and had not taken any medication for at least 7 days prior to blood collection. […] For a test compound, the results were expressed as percent inhibition of TXB2 production relative to control incubations containing DMSO vehicle. […] IC50 value was calculated by least squares method.
experimental endpoint: IC50

[[record]]
smiles_string = "COc1ccc(-c2nc(OCc3cc(C)on3)nn2-c2ccc(OC)cc2)cc1"
system_tested = "COX-I (Homo sapiens)"
experimental_endpoint = "IC50"
assay_value = "< 10 nM"

[[record]]
smiles_string = "COc1ccc(-n2nc(C(F)(F)F)nc2-c2ccc(OC)nc2)cc1"
system_tested = "COX-I (Homo sapiens)"
experimental_endpoint = "IC50"
assay_value = "< 10 nM"

[[record]]
smiles_string = "COc1ccc(-c2nc(OC3CCCCC3)nn2-c2ccc(OC)cc2)cc1"
system_tested = "COX-I (Homo sapiens)"
experimental_endpoint = "IC50"
assay_value = "< 10 nM"

[[record]]
smiles_string = "COc1ccc(-c2nc(OCc3ccc(Cl)cc3)nn2-c2ccc(OC)cc2)cc1"
system_tested = "COX-I (Homo sapiens)"
experimental_endpoint = "IC50"
assay_value = "< 10 nM"

[[record]]
smiles_string = "COc1ccc(-c2nc(C(F)(F)F)nn2-c2ccc(OC)cc2)cc1"
system_tested = "COX-I (Homo sapiens)"
experimental_endpoint = "IC50"
assay_value = "< 10 nM"

